Measured z-score values are reported for all entries that follow.
# MEASUREMENT NOTES: basal S. cerevisiae growth modulation, no modifier, primary screen, OD600, strain BY4716, 24 h, basal condition (AID 1173)
# TEST PARAMETERS: OD600, 24 h, higher = more signal, called active from +8 up or from −8 down
# answer = number (no unit)

Example results:
Sure, the documented z-score for `CC(C)OC(=O)C=C1C[C@@H](c2ccc(C(F)(F)F)cc2)O[C@@H](c2ccc(C(F)(F)F)cc2)O1` is -5.34

Sure, the documented z-score for `CCCC[C@@H](O)C1=C(COc2ccccc2)C[C@H]2C(=O)N(C)C(=O)[C@H]2[C@H]1CO` is -3.78

Could you now look at the following compound, please?
Sure, the documented z-score for `CCCNC(=O)[C@@H]1c2ccccc2C(=O)N(C(C)C)[C@H]1c1ccc(CO)cc1` is 0.121

====

# EXPERIMENTAL SYSTEM: Fibroblast growth factor 2 (Homo sapiens)
# MEASUREMENT NOTES: FGF2 binders on small-molecule microarrays, primary screen, biochemical, small-molecule microarray, 635/667 nm fluorescence (AID 1133)
# TEST PARAMETERS: small-molecule microarray binding, FGF2, fluorescence 635/667; higher = more signal
Measured composite z-score values are reported for all entries that follow.
# answer = number (no unit)

Example results:
Sure, the documented composite z-score for `[N-]=[N+]=Nc1ccccc1C[C@]1(C(N)=O)N=C(c2ccc(OCCCO)cc2)O[C@H]1c1ccccc1N=[N+]=[N-]` is 0.132

Sure, the documented composite z-score for `COCC1=C2[C@@H](CCc3ccccc3)OB(O)C[C@@H]2[C@@H]2C(=O)C=CC(=O)[C@@H]2C1` is 0.519

Sure, the documented composite z-score for `CCCCC(=C=CC[C@@H](O)c1ccccc1OCCO)C[C@@H](O)COCc1ccccc1` is 0.668

Sure, the documented composite z-score for `COCCCNC(=O)[C@@]1(Sc2ccc(C)cc2)CC(=O)N(C2CCCCC2)[C@@H]1c1ccc(CO)cc1` is -0.511

Further cases:
Sure, the documented composite z-score for `COCCOC(=O)N1C(=O)[C@@]2(c3cc(C#CC4=CCCCC4)ccc31)[C@H](c1ccc(O)cc1)N1[C@H](c3ccccc3)[C@H](c3ccccc3)OC(=O)[C@H]1[C@@H]2C(=O)N1CCN(c2ncccn2)CC1` is -0.958

Sure, the documented composite z-score for `CCCC[C@@H](O)C1=C(COc2ccccc2)C[C@H]2C(=O)N(C)C(=O)[C@H]2[C@H]1CO` is -0.16

Sure, the documented composite z-score for `NC(N)=NCCCn1cc(CNC(=O)[C@@H](N)Cc2ccccc2)nn1` is 0.943

====

# MEASUREMENT NOTES: RPMI8226 myeloma cell viability, profiling panel, resazurin fluorescence, basal, 24 h, PK04 Diversity Set (AID 1180);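 also: RPMI8826 multiple myeloma cell line at 5000 cells per well; test concentration not given here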
# TEST PARAMETERS: higher = more signal
METRIC: z-score
# answer = number (no unit)

Sure, the documented z-score for `[N-]=[N+]=NCc1ccccc1C[C@@]1(C(=O)N2CCCCC2)N=C(c2ccc(OCCCO)cc2)O[C@@H]1c1ccccc1` is -4.9

Further cases:
Sure, the documented z-score for `CCOC(=O)C[C@H]1[C@H](OC(=O)Cc2ccc3c(c2)OCO3)[C@@H](NC(=O)CC(C)C)c2cc(OCCCO)ccc2N1C(=O)Cc1ccc(OC)cc1` is 0.2

Sure, the documented z-score for `NC(=O)NCC#Cc1ccc2c(c1)[C@]1(C(=O)N2)[C@H](C(=O)O)[C@H]2C(=O)O[C@H](c3ccccc3)[C@H](c3ccccc3)N2[C@@H]1c1ccc(OCCO)cc1` is 0.547

These measurements were taken from PubChem BioAssay.
